Molecular target: human GLP-1R (Homo sapiens (Human), UniProt P43220, L260F)
Sequence (P43220 24-463 L260F): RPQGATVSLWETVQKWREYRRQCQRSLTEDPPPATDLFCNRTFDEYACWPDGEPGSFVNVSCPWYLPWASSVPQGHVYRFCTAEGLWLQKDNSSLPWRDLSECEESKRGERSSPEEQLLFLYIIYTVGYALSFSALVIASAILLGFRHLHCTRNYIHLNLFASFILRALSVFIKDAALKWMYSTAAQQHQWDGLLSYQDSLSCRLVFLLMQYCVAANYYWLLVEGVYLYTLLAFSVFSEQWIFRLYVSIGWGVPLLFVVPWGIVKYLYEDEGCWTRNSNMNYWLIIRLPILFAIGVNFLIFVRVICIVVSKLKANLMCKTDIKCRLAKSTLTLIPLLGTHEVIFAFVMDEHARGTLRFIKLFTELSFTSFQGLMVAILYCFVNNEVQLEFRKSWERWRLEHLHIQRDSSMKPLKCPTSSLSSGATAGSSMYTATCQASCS
Assay: CHO GLP-1R Clone C6 - Assay 2 (HTRF cAMP agonist assay, low receptor density)
Settings: read-out: Assay 2 EC50; CHO GLP-1R Clone C6 (low receptor density), cAMP HTRF; geometric mean
pEC50: −log10 of the molar value.
1.0 means recorded pEC50 is 7 or above; 0.0 means it is below 7.

Could you tell me if the measured pEC50 of CC1(c2ccc(Cl)cc2F)Oc2cccc(C3CCN(Cc4nc5ccc(C(=O)O)nc5n4Cc4cnco4)CC3)c2O1 (centres unmarked) reaches 7 or more? 1.0

Could you tell me if the measured pEC50 of Cn1cnc(CCn2c(CN3CCC(c4cccc5c4OC(C)(c4ccc(Cl)cc4F)O5)CC3)nc3ccc(C(=O)O)cc32)c1 (centres unmarked) reaches 7 or more? 0.0

Could you tell me if the measured pEC50 of COCCn1c(CN2CCC(c3cccc4c3OC(C)(c3ccc(Cl)cc3F)O4)CC2)nc2ccc(C(=O)O)cc21 (centres unmarked) reaches 7 or more? 1.0

Could you tell me if the measured pEC50 of COCCn1c(CN2CCC(c3cccc4c3OC(c3ccc(C#N)cc3F)O4)CC2)nc2ccc(C(=O)O)cc21 (centres unmarked) reaches 7 or more? 0.0

Could you tell me if the measured pEC50 of COCCn1c(CN2CCC(c3cccc4c3OC(C)(c3ccc(OC)c(F)c3)O4)CC2)nc2ccc(C(=O)O)cc21 (centres unmarked) reaches 7 or more? 0.0

Could you tell me if the measured pEC50 of CCn1ccnc1Cn1c(CN2CCC(c3cccc4c3OC(C)(c3ccc(Cl)cc3F)O4)CC2)nc2ccc(C(=O)O)cc21 (centres unmarked) reaches 7 or more? 0.0

Could you tell me if the measured pEC50 of COCCn1c(CN2CCC(c3cccc4c3OC(C)(c3ccccc3OC)O4)CC2)nc2ccc(C(=O)O)cc21 (centres unmarked) reaches 7 or more? 0.0

Could you tell me if the measured pEC50 of CC1(c2ccc(C#N)cc2F)Oc2cccc(C3CCN(Cc4nc5ccc(C(=O)O)cc5n4Cc4ncco4)CC3)c2O1 (centres unmarked) reaches 7 or more? 0.0

Could you tell me if the measured pEC50 of `C[C@]1(c2ccc(Cl)cc2F)Oc2cccc(C3CCN(Cc4nc5ccc(C(=O)O)c(F)c5n4C[C@@H]4CCO4)CC3)c2O1` reaches 7 or more? 1.0

Could you tell me if the measured pEC50 of COCc1cc(Cn2c(CN3CCC(c4cccc5c4OC(C)(c4ccc(Cl)cc4F)O5)CC3)nc3ccc(C(=O)O)cc32)[nH]n1 (centres unmarked) reaches 7 or more? 0.0

Could you tell me if the measured pEC50 of Cn1cnc(Cn2c(CN3CCC(c4cccc5c4OC(C)(c4ccc(Cl)cc4F)O5)CC3)nc3ccc(C(=O)O)cc32)c1 (centres unmarked) reaches 7 or more? 0.0

---

Target: human GLP-1R (Homo sapiens (Human), UniProt P43220, L260F)
Assay: CHO GLP-1R Clone C6 - Assay 2 (HTRF cAMP agonist assay, low receptor density)
Details: EC50 in Assay 2, CHO GLP-1R Clone C6; cAMP; geometric mean of replicates
One threshold, 20 nM, splits the recorded EC50 values: lower ones are 1 (yes), equal or higher ones are 0 (no).

Answer whether the compound `C[C@@]1(c2ccc(Cl)cc2F)Oc2cccc(C3CCN(Cc4nc5ccc(C(=O)O)cc5n4C[C@@H]4CCO4)CC3)c2O1` has EC50 strictly less than 20 nM 0 (no)

Answer whether the compound O=C(O)c1ccc2nc(CN3CCC(c4cccc5c4O[C@@H](c4ccc(Cl)cc4F)O5)CC3)n(C[C@@H]3CCO3)c2c1 [5, free acid] has EC50 strictly less than 20 nM 0 (no)

Answer whether the compound C[C@]1(c2ccc(Cl)cc2F)Oc2cccc(C3CCN(Cc4nc5ccc(C(=O)O)cc5n4C[C@@H]4CCO4)CC3)c2O1 [7, free acid] has EC50 strictly less than 20 nM 1 (yes)

Answer whether the compound C[C@]1(c2ccc(Cl)cc2F)Oc2cccc(C3CCN(Cc4nc5ccc(C(=O)O)cc5n4C[C@@H]4CCO4)CC3)c2O1 [Example 7] has EC50 strictly less than 20 nM 1 (yes)

Cited source: patent US10676465B2
